// provenance: patent US20100184809A1

IC50 values for the molecules below.
biological target: human FXRalpha ligand binding domain (LBD) (Homo sapiens); test: FRET activity assay (ligand mediated cofactor peptide interaction, LANCE); details: GST-FXR-LBD / biotinylated SRC-1 peptide (676-700)
Sequence (Q96RI1 187-472 isoform Q96RI1-2): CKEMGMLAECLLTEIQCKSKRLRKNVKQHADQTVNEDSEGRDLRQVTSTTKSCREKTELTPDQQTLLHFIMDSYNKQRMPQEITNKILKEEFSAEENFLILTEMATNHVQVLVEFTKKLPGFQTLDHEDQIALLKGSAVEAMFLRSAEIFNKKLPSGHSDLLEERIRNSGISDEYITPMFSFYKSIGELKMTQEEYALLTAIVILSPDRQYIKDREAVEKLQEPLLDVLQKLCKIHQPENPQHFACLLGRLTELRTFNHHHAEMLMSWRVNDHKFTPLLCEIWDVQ

[
  {
    "molecule": "CC(C)c1onc(-c2c(Cl)cccc2Cl)c1COc1ccc(N(C)Cc2ccc(C(=O)OCCO)cc2)c(C(F)(F)F)n1",
    "IC50": "≤ 1000 nM"
  },
  {
    "molecule": "COC(=O)c1ccc(C(=O)Nc2ccc(OCc3c(-c4c(Cl)cccc4Cl)noc3C(C)C)nc2C(F)(F)F)cc1",
    "IC50": "1000 to 10000 nM"
  },
  {
    "molecule": "Cc1nc(OCc2c(-c3c(Cl)cccc3Cl)noc2C(C)C)ccc1N(C)C(=O)c1ccc(C(=O)O)cc1",
    "IC50": "≤ 1000 nM"
  }
]

Ask: Any idea what its IC50 is? The molecule is CC(C)c1onc(-c2c(Cl)cccc2Cl)c1COc1ccc(N(C)C(=O)c2ccc(C(=O)O)cc2)c(C(F)(F)F)n1
Reply: ≤ 1000 nM

Ask: Any idea what its IC50 is? The molecule is Cc1cc(OCc2c(-c3c(Cl)cccc3Cl)noc2C(C)C)cnc1NC(=O)c1ccc(C(=O)O)cc1
Reply: ≤ 1000 nM

Ask: Any idea what its IC50 is? The molecule is Cc1cc(OCc2c(-c3c(Cl)cccc3Cl)noc2C(C)C)cnc1N(C)C(=O)c1ccc(C(=O)O)cc1
Reply: 1000 to 10000 nM

Ask: Any idea what its IC50 is? The molecule is CC(C)c1onc(-c2c(Cl)cccc2Cl)c1COc1ccc(N(C)Cc2ccc(C(=O)NCC(O)CO)cc2)c(C(F)(F)F)n1 (stereo not drawn)
Reply: ≤ 1000 nM

Ask: Any idea what its IC50 is? The molecule is CC(C)c1onc(-c2c(Cl)cccc2Cl)c1COc1ccc(NC(=O)c2cccc(C(=O)O)c2)c(C(F)(F)F)n1
Reply: ≤ 1000 nM

Ask: Any idea what its IC50 is? The molecule is COc1nc(OCc2c(-c3c(Cl)cccc3Cl)noc2C(C)C)ccc1NS(=O)(=O)c1ccc(C(=O)O)cc1
Reply: ≤ 1000 nM

Ask: Any idea what its IC50 is? The molecule is CC(C)c1onc(-c2c(Cl)cccc2Cl)c1COc1ccc(N(C)C(=O)c2ccc(C(N)=O)cc2)c(C(F)(F)F)n1
Reply: ≤ 1000 nM

Ask: Any idea what its IC50 is? The molecule is CC(C)c1onc(-c2c(Cl)cccc2Cl)c1COc1cnc(N(C)Cc2ccc(C(=O)O)cc2)c(Cl)c1
Reply: ≤ 1000 nM

Ask: Any idea what its IC50 is? The molecule is CC(C)c1onc(-c2c(Cl)cccc2Cl)c1COc1ccc(N(C)C(=O)c2cccc(C(=O)O)c2)c(C(F)(F)F)n1
Reply: ≤ 1000 nM

Ask: Any idea what its IC50 is? The molecule is CC(C)c1onc(-c2c(Cl)cccc2Cl)c1COc1ccc(NCc2ccc(C(=O)O)cc2)c(C(F)(F)F)n1
Reply: ≤ 1000 nM

Ask: Any idea what its IC50 is? The molecule is CC(C)c1onc(-c2c(Cl)cccc2Cl)c1COc1cnc(N(C)Cc2cccc(C(=O)O)c2)c(Cl)c1
Reply: ≤ 1000 nM

Ask: Any idea what its IC50 is? The molecule is CC(C)c1onc(-c2c(Cl)cccc2Cl)c1COc1ccc(NC(=O)c2ccc(C(=O)O)cc2)c(C(F)(F)F)n1
Reply: ≤ 1000 nM

Ask: Any idea what its IC50 is? The molecule is CC(C)c1onc(-c2c(Cl)cccc2Cl)c1COc1ccc(N(C)Cc2ccc(C(=O)NCCO)cc2)c(C(F)(F)F)n1
Reply: ≤ 1000 nM

Ask: Any idea what its IC50 is? The molecule is CC(C)c1onc(-c2c(Cl)cccc2Cl)c1COc1ccc(N(C)Cc2ccc(C(=O)NCCN(C)C)cc2)c(C(F)(F)F)n1
Reply: ≤ 1000 nM

Ask: Any idea what its IC50 is? The molecule is CC(C)c1nnn(-c2c(Cl)cccc2Cl)c1COc1ccc(N(C)C(=O)c2ccc(C(=O)O)cc2)c(C(F)(F)F)n1
Reply: ≤ 1000 nM

Ask: Any idea what its IC50 is? The molecule is CC(C)c1onc(-c2c(Cl)cccc2Cl)c1COc1ccc(N(C)C(=O)c2ccc(C(=O)N(C)C)cc2)c(C(F)(F)F)n1
Reply: ≤ 1000 nM

Ask: Any idea what its IC50 is? The molecule is Cc1nc(OCc2c(-c3c(Cl)cccc3Cl)noc2C(C)C)ccc1N(C)S(=O)(=O)c1ccc(C(=O)O)cc1
Reply: ≤ 1000 nM

Ask: Any idea what its IC50 is? The molecule is CC(C)c1onc(-c2c(Cl)cccc2Cl)c1COc1ccc(N(C)C(=O)c2ccc(-c3nnn[nH]3)cc2)c(C(F)(F)F)n1
Reply: ≤ 1000 nM
